Each record here notes measured phosphorylation enrichment.
System: c-Src
Assay: phosphorylation enrichment, bacterial display (enrichment ratio); higher = better substrate or ligand; peptides without Tyr show the background;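 further: 11-residue human phosphosite peptides and single-mutation variants displayed on the E. coli surface, counted by deep sequencing, each peptide's frequency after selection divided by its frequency in the unselected input library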;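 further: frequency after pTyr selection over input frequency; kinase dosed for 20-30% of maximal phosphorylation in three min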
assay endpoint: phosphorylation enrichment

1. FKDYFYCWNTS [AICDA_Y146_F151S] = 0.885
2. QPDLLYDHIQP [TRRAP_Y862_F860L] = 10.3
3. EALSLYTKLMN [STAM_Y371] = 0.551

====

Molecular target: FGFR1 (UniProt P11362)
Sequence (P11362 whole entry, looked up): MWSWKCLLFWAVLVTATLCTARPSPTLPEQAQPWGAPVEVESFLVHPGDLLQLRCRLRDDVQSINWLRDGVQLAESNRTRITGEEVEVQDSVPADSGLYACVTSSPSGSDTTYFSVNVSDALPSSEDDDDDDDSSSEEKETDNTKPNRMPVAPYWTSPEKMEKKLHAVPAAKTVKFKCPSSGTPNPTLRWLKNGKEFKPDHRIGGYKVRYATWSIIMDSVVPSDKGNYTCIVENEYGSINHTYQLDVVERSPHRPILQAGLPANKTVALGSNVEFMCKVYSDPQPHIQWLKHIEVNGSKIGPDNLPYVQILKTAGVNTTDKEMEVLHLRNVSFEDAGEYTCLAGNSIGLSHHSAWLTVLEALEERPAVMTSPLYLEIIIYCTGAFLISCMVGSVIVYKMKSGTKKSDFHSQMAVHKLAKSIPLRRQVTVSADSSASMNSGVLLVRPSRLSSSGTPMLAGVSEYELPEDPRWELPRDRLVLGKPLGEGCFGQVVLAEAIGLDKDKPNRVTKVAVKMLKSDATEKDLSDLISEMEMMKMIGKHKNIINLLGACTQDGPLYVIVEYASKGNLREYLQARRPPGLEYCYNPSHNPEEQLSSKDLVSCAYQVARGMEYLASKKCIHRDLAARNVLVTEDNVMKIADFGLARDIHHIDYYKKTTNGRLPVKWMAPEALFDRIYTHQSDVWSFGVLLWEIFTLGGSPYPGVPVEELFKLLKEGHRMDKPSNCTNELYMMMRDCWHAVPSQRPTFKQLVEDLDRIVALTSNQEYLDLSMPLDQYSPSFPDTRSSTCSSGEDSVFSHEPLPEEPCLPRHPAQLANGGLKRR
Test: phosphorylation enrichment, bacterial display (enrichment ratio); higher = better substrate or ligand; peptides without Tyr show the background
Entries and their measured phosphorylation enrichment follow.
assay endpoint: phosphorylation enrichment

1. EILLSYLRTGY [TGM1_Y365] = 0.559
2. ARTNEYKIIRS [INA_Y87_T92S] = 0.282
3. QAIDEYEKWLE [MAP9_Y603_N601D] = 0.515
4. HNLDYYKKTTN [FGFR3_Y648] = 0.694
5. FHKALYTVRSY [PDE6C_Y266] = 0.465
6. AHPGEYGAEAL [HBA1_Y25_A22P] = 0.453
7. KLKNAYEESLE [MYH7_Y1488] = 0.65
8. TLQNMYGCDVG [HLA-B_Y123_S121N] = 0.545
9. ECKHLYSRKEG [PTPN11_Y263_L261H] = 0.463
10. SVVVLYEPPEV [TP53_Y220_P219L] = 0.588
11. LEDPMYDIIRD [RP9_Y142_H137L] = 1.14
12. GTAPSYGNPSS [CD19_Y378] = 0.38
13. RWHEGYRQTPR [CD44_Y412_K417R] = 0.433
14. YAREGYSALPQ [SARS2_Y52] = 0.522

====

Test system: Fer (mouse)
Experiment: phosphorylation enrichment, bacterial display (enrichment ratio); higher = better substrate or ligand; peptides without Tyr show the background
Assign Y whenever phosphorylation enrichment does not fall below 0.6; assign N whenever it does.

1. AVAFLYYKSIG [ADGRL4_Y301_V300L] = N
2. FHKALYTVRSY [PDE6C_Y266] = N
3. AFAEVYEGQVS [ALK_Y1131_G1128A] = N
4. NGSFLYVIISQ [LRP1B_Y1988_R1987L] = Y
5. VGQRPYRPLPE [REEP3_Y170_Q171R] = N
6. SHLSAFPALEG [CD5_Y465_Y465F] = N
7. LGPDGYSTVDR [ARVCF_Y901] = Y
8. RSAGKYDVFFI [MECP2_Y120_L124F_YF] = N
9. RRIHSYRGYLW [VHL_Y112_H115Y] = Y
10. AHPIIYTIIEA [PYKtide_no-pT_2014] = Y
11. WASSSYRETPS [SORBS1_Y79_R74W] = N
12. EFENSYIFDIN [GAB1_Y83] = N

====

Tested on: AncSZ
Test: phosphorylation enrichment, bacterial display (enrichment ratio); higher = better substrate or ligand; peptides without Tyr show the background
# phosphorylation enrichment >= 0.9 gives criterion met, anything below gives criterion not met

1) HSSPVYVGRVV [TGM2_Y219_R214H] = criterion met
2) FSNKLYFQLEQ [PDPR_Y109_YF] = criterion met
3) RNIQQYNSFVS [PRKAR1A_Y373] = criterion not met
4) MSRNLYSGDCY [DDR2_Y736_Y740C] = criterion met
5) ANNPLYKEATS [ITGB3_Y773] = criterion not met
6) ADNSAYLMGLN [MYH7_Y386_K383N] = criterion not met
7) CTTIHYNFMCK [TP53_Y234_N239K_YF] = criterion not met
8) RFVTRHIFNRE [HLA-DQB1_Y62_Y62H_YF] = criterion not met
9) DLQDEYDFKRK [STAT1_Y170_C174R] = criterion met
10) ASKEPYFVRCI [MYO1D_Y585_YF] = criterion met
11) PVGVLYEVKVF [PTS_Y128_K129E_YF] = criterion met
12) IKIMGYFIRTI [IDS_Y490_S491F] = criterion met
13) RKNAKYLLKGE [CDH5_Y82] = criterion not met
14) EALSLYTKLMN [STAM_Y371] = criterion met
